- ASSAYED TARGET: T1, human GIP receptor (human, UniProt P48546 22-466)
- T1 sequence (looked up): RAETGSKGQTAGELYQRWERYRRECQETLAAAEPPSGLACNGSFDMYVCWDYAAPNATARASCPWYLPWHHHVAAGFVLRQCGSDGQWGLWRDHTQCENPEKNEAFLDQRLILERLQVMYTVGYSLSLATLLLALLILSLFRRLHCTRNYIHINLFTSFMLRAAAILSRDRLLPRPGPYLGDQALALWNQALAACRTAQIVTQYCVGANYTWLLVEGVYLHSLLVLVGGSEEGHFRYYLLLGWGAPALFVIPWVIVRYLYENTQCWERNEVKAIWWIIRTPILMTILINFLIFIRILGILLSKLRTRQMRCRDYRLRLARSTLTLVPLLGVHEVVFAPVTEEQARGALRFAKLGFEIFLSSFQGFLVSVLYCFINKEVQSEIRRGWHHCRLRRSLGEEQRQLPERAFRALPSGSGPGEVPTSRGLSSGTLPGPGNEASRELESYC
- EXPERIMENT SUMMARY: cell-based or functional assay
Bridge positions count the residues as written; N and C are the ends. Square brackets hold non-standard residues; d marks the D form. Ends that are not written are not given here. * marks the point of attachment. Acetyl(2-(4-imidazolyl)) = O=C(Cc1c[nH]cn1)*; Aib = CC(C)(N)C(=O)O
PROPERTY NAME: In vitro activity (%) compared with native peptide, vs GIP

BINDER	RELATION	NUMERIC RESULT
{Acetyl(2-(4-imidazolyl))}-[Aib]QGTFTSDYSIAMDEIHQKDFVNWLLNTKC (bridge 15-19; numbers in words are those of the source; also: ring between positions 16 and 20, type not given here) [triple agonist of SEQ ID NO: 94]	<	0.1
Y[Aib]QGTFTSDYSKYLDECRAKEFVQWLLAQKGKKNDWKHNIT (bridge 16-20; not fully specified) [triple agonist of SEQ ID NO: 23]	<	0.1
H[Aib]QGTFTSDYSKYLDEKACKDFVQWLLDGGPSSGAPPPS (bridge 16-20; not fully specified) [triple agonist of SEQ ID NO: 32]	=	8.8
{Acetyl(2-(4-imidazolyl))}-[Aib]EGTFTSDYSIAMDEIHQKDFVDWLLAEC (bridge 15-19; numbers in words are those of the source; also: ring between positions 16 and 20, type not given here) [triple agonist of SEQ ID NO: 84]	<	0.1
[Acetyl(2-(4-imidazolyl))][Aib]QGTFTSDYSICMDEKHQKDFVNWLLNTK (bridge 16-20; not fully specified) [triple agonist of SEQ ID NO: 59]	=	4
H[Aib]QGTFTSDCSKYLDSRAAQDFVQWLLDGGPSSGAPPPS (not fully specified) [triple agonist of SEQ ID NO: 26]	<	0.1
H[Aib]QGTFTSDYSKCLDEKRAKEFVQWLLDHHPSSGQPPPS (bridge 16-20) [triple agonist of SEQ ID NO: 65]	=	11.6
Y[Aib]QGTFTSDYSKYLDEKRAKEFVQWLLDHHPSSGQPPPSC (bridge 16-20) [triple agonist of SEQ ID NO: 42]	=	7.8
H[Aib]QGTFTSDYSIAMDEIHQKDFVNWLLAQKC (bridge 16-20; not fully specified) [triple agonist of SEQ ID NO: 33]	=	10.4
